Assign HMB/HMB-ester ratio for non-enzyme catalyzed hydrolysis to each entry below.
# assayExplanation: Non-enzymatic hydrolysis of HMB esters in phosphate buffer
# Type: physicochemical
# conditionParameters: ester 1 mM, phosphate buffer pH 7.2, approx. 25° C., 24 hours

Exercise: State the recorded HMB/HMB-ester ratio for non-enzyme catalyzed hydrolysis for this entry: CCOC(=O)C(O)CCSC (centres unmarked) [HMB-ethyl ester, HMB ethyl ester]
Solution: 0.53

Exercise: Need HMB/HMB-ester ratio for non-enzyme catalyzed hydrolysis, item CCCOC(=O)C(O)CCSC (centres unmarked) [HMB-propyl ester, HMB propyl ester]
Solution: 0.09

Exercise: Give its HMB/HMB-ester ratio for non-enzyme catalyzed hydrolysis value. Item: COC(=O)C(O)CCSC (centres unmarked) [HMB-methyl ester, HMB methyl ester]
Solution: 1.45

Exercise: Form field: reported HMB/HMB-ester ratio for non-enzyme catalyzed hydrolysis of CSCCC(O)C(=O)OC(C)C (centres unmarked) [HMB-isopropyl ester, HMB isopropyl ester]
Solution: 0.36

Exercise: Field request: HMB/HMB-ester ratio for non-enzyme catalyzed hydrolysis | item: CCCCOC(=O)C(O)CCSC (centres unmarked) [HMB-butyl ester, HMB butyl ester]
Solution: 0.09

---

# systemName: Novo 435 (Candida antarctica) lipase (Moesziomyces antarcticus)
# Construct: purchased Novo (only as part of the product name) 435 (also given as 438)
# Sequence (P41365 26-342): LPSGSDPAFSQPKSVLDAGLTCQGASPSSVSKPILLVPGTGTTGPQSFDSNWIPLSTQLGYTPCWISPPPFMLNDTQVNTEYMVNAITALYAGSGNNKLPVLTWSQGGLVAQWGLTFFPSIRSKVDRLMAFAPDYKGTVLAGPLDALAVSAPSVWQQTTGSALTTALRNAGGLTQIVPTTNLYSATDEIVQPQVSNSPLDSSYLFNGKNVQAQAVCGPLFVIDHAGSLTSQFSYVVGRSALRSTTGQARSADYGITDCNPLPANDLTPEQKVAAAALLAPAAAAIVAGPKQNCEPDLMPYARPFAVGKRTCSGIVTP
# assayExplanation: Novo 435 (Candida antarctica) lipase catalyzed hydrolysis of HMB esters
# Type: biochemical
# conditionParameters: ester 1 mM, immobilized lipase 6 mg, pH 7.2, approx. 25° C., 24 hours
observable: HMB/HMB-ester ratio for Novo 435 (Candida antarctica) lipase catalyzed hydrolysis
Just the number.

Exercise: Which HMB/HMB-ester ratio for Novo 435 (Candida antarctica) lipase catalyzed hydrolysis value is on record for CCCOC(=O)C(O)CCSC (stereo not shown) ?
Solution: 52.27

Exercise: Which measured HMB/HMB-ester ratio for Novo 435 (Candida antarctica) lipase catalyzed hydrolysis value corresponds to COC(=O)C(O)CCSC (stereo not shown) ?
Solution: 128

Exercise: What does the data say about its HMB/HMB-ester ratio for Novo 435 (Candida antarctica) lipase catalyzed hydrolysis? Entry: CCCCOC(=O)C(O)CCSC (stereo not shown)
Solution: 176.3

Exercise: Could you share which HMB/HMB-ester ratio for Novo 435 (Candida antarctica) lipase catalyzed hydrolysis value was measured for CSCCC(O)C(=O)OC(C)C (stereo not shown) ?
Solution: 165

---

# Test system: Aspergillus niger lipase
# assayExplanation: Aspergillus niger lipase catalyzed hydrolysis of HMB esters
# Assay type: biochemical
# conditionParameters: ester 1 mM, lipase 120 mg, pH 7.2, approx. 25° C., 24 hours
Exercise: for every item that follows, state its recorded HMB/HMB-ester ratio for Aspergillus niger lipase catalyzed hydrolysis.
# print the numeric value only

Exercise: Consider the compound shown here: COC(=O)C(O)CCSC (centres unmarked) What is its recorded HMB/HMB-ester ratio for Aspergillus niger lipase catalyzed hydrolysis?
Solution: 4.55

Exercise: Record request: HMB/HMB-ester ratio for Aspergillus niger lipase catalyzed hydrolysis value, item CCCCOC(=O)C(O)CCSC (centres unmarked)
Solution: 160.57

Exercise: Requested read-out: HMB/HMB-ester ratio for Aspergillus niger lipase catalyzed hydrolysis. Entry: CCCOC(=O)C(O)CCSC (centres unmarked)
Solution: 149.24

Exercise: Which HMB/HMB-ester ratio for Aspergillus niger lipase catalyzed hydrolysis value is on record for CSCCC(O)C(=O)OC(C)C (centres unmarked) ?
Solution: 0.81

Exercise: For the compound CCOC(=O)C(O)CCSC (centres unmarked) , what HMB/HMB-ester ratio for Aspergillus niger lipase catalyzed hydrolysis is on record?
Solution: 16.71

---

# systemName: UniProt P00591
# Sequence (P00591 whole entry): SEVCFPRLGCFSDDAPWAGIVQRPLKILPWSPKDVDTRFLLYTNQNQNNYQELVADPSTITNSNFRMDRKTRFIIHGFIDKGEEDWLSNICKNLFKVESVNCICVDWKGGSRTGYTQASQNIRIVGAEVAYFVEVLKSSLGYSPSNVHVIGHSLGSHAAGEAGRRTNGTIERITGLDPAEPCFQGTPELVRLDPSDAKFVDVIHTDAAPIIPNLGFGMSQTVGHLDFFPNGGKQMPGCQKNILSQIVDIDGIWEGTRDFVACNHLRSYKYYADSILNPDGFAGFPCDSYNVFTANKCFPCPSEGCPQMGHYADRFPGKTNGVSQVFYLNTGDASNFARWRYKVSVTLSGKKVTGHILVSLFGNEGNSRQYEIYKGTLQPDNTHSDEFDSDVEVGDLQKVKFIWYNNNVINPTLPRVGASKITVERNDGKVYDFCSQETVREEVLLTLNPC
# assayExplanation: PPL lipase catalyzed hydrolysis of HMB esters
# Format: biochemical
# conditionParameters: ester 1 mM, PPL 120 mg, pH 7.2, approx. 25° C., 24 hours
For each of the compounds below, state its HMB/HMB-ester ratio for PPL lipase catalyzed hydrolysis.
Reply briefly: the number, and no unit.

Exercise: Given CCCOC(=O)C(O)CCSC (centres unmarked) [HMB-propyl ester, HMB propyl ester] , state its recorded HMB/HMB-ester ratio for PPL lipase catalyzed hydrolysis.
Solution: 1.69

Exercise: Consider the compound shown here: CSCCC(O)C(=O)OC(C)C (centres unmarked) [HMB-isopropyl ester, HMB isopropyl ester] What is its recorded HMB/HMB-ester ratio for PPL lipase catalyzed hydrolysis?
Solution: 3.3

Exercise: Using the record for COC(=O)C(O)CCSC (centres unmarked) [HMB-methyl ester, HMB methyl ester] , report its HMB/HMB-ester ratio for PPL lipase catalyzed hydrolysis.
Solution: 2.53

Exercise: Returns the measured HMB/HMB-ester ratio for PPL lipase catalyzed hydrolysis for the input compound. Input: CCCCOC(=O)C(O)CCSC (centres unmarked) [HMB-butyl ester, HMB butyl ester]
Solution: 2.0

Exercise: Would you kindly share the measured HMB/HMB-ester ratio for PPL lipase catalyzed hydrolysis for CCOC(=O)C(O)CCSC (centres unmarked) [HMB-ethyl ester, HMB ethyl ester] ?
Solution: 0.94

Value source: patent US20050009158A1
